biological target: Endonuclease 8-like 2 (Homo sapiens); settings: Compound Concentration 10.0 uM, Hit No;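 note: fluorescence at 594 nm reports NEIL2 cutting and release of a quenched double-stranded DNA oligo substrate, reduced signal read as inhibition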
Description: Inhibition of NEIL2 by quantifying inhibition of NEIL2-mediated cleavage and dissociation of quenched duplex DNA oligonucleotides, measured as fluorescence at 594 nm.
inhibition: recorded values

Compound: CN1C2CCCC1CC(Nc1ccccc1Br)C2 (centres undefined)
inhibition [%]: -3.41

Compound: OCCOCCN1CCN(C(c2ccccc2)c2ccc(Cl)cc2)CC1 (centres undefined)
inhibition [%]: -2.98

Compound: CC(C)(C)NCC(O)COc1cccc2[nH]c(=O)[nH]c12 (centres undefined)
inhibition [%]: 10.5

Compound: CC(=O)Nc1c(C(C)=O)c(=O)n(C)c2nc(-c3ccc(Cl)cc3Cl)c(-c3ccc(Cl)cc3)cc12
inhibition [%]: 5.63

Compound: CCCCOCCOc1nc(-c2ccc(C(=O)O)c(F)c2)sc1C
inhibition [%]: 6.14

Compound: C[C@]1(O)C[C@@H](c2nc(-c3ccc4ccc(-c5ccccc5)nc4c3)c3c(N)nccn32)C1
inhibition [%]: 12.6

Compound: Cc1cccc(CN2CCN(C(c3ccccc3)c3ccc(Cl)cc3)CC2)c1 (centres undefined)
inhibition [%]: 8.7

Compound: COc1cc(OC)c(NC(=O)Nc2cc(C)on2)cc1Cl
inhibition [%]: 3.98

Compound: NS(=O)(=O)c1cc(NC(=O)Cc2ccccc2)ccc1Oc1cccc(Cl)c1
inhibition [%]: -2.53
